Taken from paper PMC12461739.

test: MTT cytotoxicity assay, MCF-10A; assay type: cell-based, human; settings: human, MCF-10A non-tumorigenic breast epithelial cells, MTT, 48 h treatment, non-tumorigenic breast epithelial cells; read-out: IC50, cytotoxicity toward MCF-10A
# reported IC50 at 48 h; entries follow
recordedEndpoint: IC50 at 48 h (µM)

[
  {
    "molecule": "COc1cccc2c1C(=O)c1c(O)c3c(c(O)c1C2=O)C[C@@](O)(C(=O)CO)C[C@@H]3O[C@H]1C[C@H](N)[C@H](O)[C@H](C)O1 [doxorubicin, reference compound]",
    "readoutUnit": "µM",
    "numericReadout": 16.2
  },
  {
    "molecule": "CCOC(=O)/C(C#N)=C/c1ccc(Oc2c(C)c3cc(Br)c(O)c(Br)c3[nH]c2=O)cc1",
    "readoutUnit": "µM",
    "numericReadout": 52
  }
]

###

assay: Acute toxicity and lethal dose determination; assay type: in vivo, Swiss albino mice; details: Swiss albino, mouse, in vivo, ip; mice, i.p., 48 hour observation; read-out: maximum tolerated dose (LD0)
recordedEndpoint: MTD at 48 h (mg/kg)

[
  {
    "compound": "CCOC(=O)/C(C#N)=C/c1ccc(Oc2c(C)c3cc(Br)c(O)c(Br)c3[nH]c2=O)cc1 [Compound 7]",
    "numericReadout": 100
  }
]

###

test system: MCF-7 cells; test: MTT antiproliferative assay, MCF-7; format: cell-based, human; settings: MTT, 48 h treatment; read-out: IC50, antiproliferative activity toward MCF-7
pIC50: −log10 of the molar value.

[
  {
    "mol": "CCOC(=O)/C(C#N)=C/c1ccc(Oc2c(C)c3cc(Br)c(O)c(Br)c3[nH]c2=O)c(OC)c1",
    "pIC50": 4.58
  },
  {
    "mol": "CCOC(=O)/C(C#N)=C/c1cc(Br)c(Oc2c(C)c3cc(Br)c(O)c(Br)c3[nH]c2=O)c(Br)c1",
    "pIC50": 3.95
  },
  {
    "mol": "CCOC(=O)/C(C#N)=C/c1ccc(Oc2c(C)c3cc(Br)c(OC(C)=O)c(Br)c3[nH]c2=O)c(OC)c1",
    "pIC50": 4.48
  },
  {
    "mol": "CCOC(=O)/C(C#N)=C/c1ccc(Oc2c(C)c3cc(Br)c(OC(C)=O)c(Br)c3[nH]c2=O)cc1",
    "pIC50": 4.75
  }
]

###

system: MCF-10A cells; experiment: MTT cytotoxicity assay, MCF-10A; assay type: cell-based, human; conditions: MTT, 48 h treatment, non-tumorigenic breast epithelial cells; read-out: IC50, cytotoxicity toward MCF-10A
pIC50: −log10 of the molar value.
# reported pIC50; entries follow

[
  {
    "compound": "CCOC(=O)/C(C#N)=C/c1ccc(Oc2c(C)c3cc(Br)c(O)c(Br)c3[nH]c2=O)cc1",
    "pIC50": 4.28
  },
  {
    "compound": "COc1cccc2c1C(=O)c1c(O)c3c(c(O)c1C2=O)C[C@@](O)(C(=O)CO)C[C@@H]3O[C@H]1C[C@H](N)[C@H](O)[C@H](C)O1 [doxorubicin, reference compound]",
    "pIC50": 4.79
  }
]

###

# reported pIC50; entries follow
test system: MCF-7 cells; assay: MTT antiproliferative assay, MCF-7; assay type: cell-based, human; settings: Homo sapiens, MCF7, 48 h, MTT, 48 h treatment; read-out: IC50, antiproliferative activity toward MCF-7
pIC50: −log10 of the molar value.
recordedEndpoint: pIC50

[
  {
    "molecule": "CCOC(=O)/C(C#N)=C/c1ccc(Oc2c(C)c3cc(Br)c(O)c(Br)c3[nH]c2=O)c(OC)c1 [Compound 6a]",
    "recordedEndpoint": "pIC50",
    "numericReadout": 4.58
  },
  {
    "molecule": "COc1cccc2c1C(=O)c1c(O)c3c(c(O)c1C2=O)C[C@@](O)(C(=O)CO)C[C@@H]3O[C@H]1C[C@H](N)[C@H](O)[C@H](C)O1 [doxorubicin, reference compound]",
    "recordedEndpoint": "pIC50",
    "numericReadout": 4.90
  },
  {
    "molecule": "CCOC(=O)/C(C#N)=C/c1ccc(Oc2c(C)c3cc(Br)c(OC(C)=O)c(Br)c3[nH]c2=O)cc1 [Compound 8]",
    "recordedEndpoint": "pIC50",
    "numericReadout": 4.75
  },
  {
    "molecule": "CCOC(=O)/C(C#N)=C/c1ccc(Oc2c(C)c3cc(Br)c(OC(C)=O)c(Br)c3[nH]c2=O)c(OC)c1 [Compound 9]",
    "recordedEndpoint": "pIC50",
    "numericReadout": 4.48
  },
  {
    "molecule": "CCOC(=O)/C(C#N)=C/c1cc(Br)c(Oc2c(C)c3cc(Br)c(O)c(Br)c3[nH]c2=O)c(Br)c1 [Compound 6b]",
    "recordedEndpoint": "pIC50",
    "numericReadout": 3.95
  },
  {
    "molecule": "CCOC(=O)/C(C#N)=C/c1ccc(Oc2c(C)c3cc(Br)c(O)c(Br)c3[nH]c2=O)cc1 [Compound 7]",
    "recordedEndpoint": "pIC50",
    "numericReadout": 5.12
  }
]
